target: human dopamine D2 (Long form) receptor (Homo sapiens, UniProt P14416); assay: [3H]spiperone receptor binding assay, D2 (Long form) (CHO K1 membranes); conditions: [3H]spiperone 0.2 nM, human D2 (Long form), CHO K1 membranes, 60 minutes at 25° C.; read-out: D2 Ki
Sequence (P14416 whole entry): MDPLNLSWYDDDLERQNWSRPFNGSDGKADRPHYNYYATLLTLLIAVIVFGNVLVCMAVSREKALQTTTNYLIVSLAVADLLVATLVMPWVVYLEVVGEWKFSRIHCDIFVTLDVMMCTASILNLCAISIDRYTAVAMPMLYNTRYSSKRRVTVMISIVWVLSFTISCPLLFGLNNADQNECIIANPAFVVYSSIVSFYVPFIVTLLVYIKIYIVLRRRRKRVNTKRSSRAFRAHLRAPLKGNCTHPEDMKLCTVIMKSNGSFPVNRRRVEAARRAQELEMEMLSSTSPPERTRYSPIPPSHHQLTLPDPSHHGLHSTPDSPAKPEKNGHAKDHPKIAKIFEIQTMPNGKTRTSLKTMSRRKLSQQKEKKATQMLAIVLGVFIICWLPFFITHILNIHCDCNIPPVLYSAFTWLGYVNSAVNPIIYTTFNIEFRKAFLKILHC
Counter-ions that a name gives are not always drawn.
observed_property: Ki (µM)

A selection of reference data follows.
molecule	measurement
Cc1cccc(N2CCN(Cc3ccc4ccc(=O)oc4c3)CC2)c1C	0.688
O=c1ccc2ccc(CN3CCN(c4cccc(F)c4)CC3)cc2o1	4.02
O=c1ccc2cc(CN3CCN(c4ccccc4Cl)CC3)ccc2o1	0.218
O=c1ccc2cc(CN3CCN(c4ccccn4)CC3)ccc2o1 [Example 44, dihydrochloride]	2.17
Cc1ccccc1N1CCN(Cc2ccc3ccc(=O)oc3c2)CC1	1.94
O=c1ccc2ccc(CN3CCN(c4ccc(F)c(C(F)(F)F)c4)CC3)cc2o1	7.12
O=c1ccc2ccc(CN3CCN(c4ccccc4Cl)CC3)cc2o1	0.635
O=c1ccc2ccc(CN3CCN(c4cccc(Cl)c4Cl)CC3)cc2o1	1.84
O=c1ccc2ccc(CN3CCN(c4ccc(CO)c(Cl)c4)CC3)cc2o1	10.6
O=c1ccc2cc(CN3CCN(c4cccc(Cl)c4)CC3)ccc2o1	3.32

(I) O=c1ccc2ccc(CN3CCN(c4cccc(C(F)(F)F)c4)CC3)cc2o1
(II) Cc1cccc(N2CCN(Cc3ccc4oc(=O)ccc4c3)CC2)c1C
Looking only at measured Ki, which entry is lower, I or II ? Provide the label of your selected option as the answer.
II
(II: 3.25 µM, I: 5.88 µM)

(P) O=c1ccc2ccc(CN3CCN(c4cccc([N+](=O)[O-])c4)CC3)cc2o1
(Q) O=c1ccc2cc(CN3CCN(c4ccc(CO)c(Br)c4)CC3)ccc2o1
// max by Ki over [ P , Q ] Return value: the label identifying the chosen record.
P

(a) COc1cccc(N2CCN(Cc3ccc4oc(=O)ccc4c3)CC2)c1
(b) O=c1ccc2cc(CN3CCN(c4cccc(Cl)c4Cl)CC3)ccc2o1
Compare the recorded Ki of a and b ; state which is larger. // output: label of the selected item
a

----------
biological target: human recombinant dopamine D4.2 receptor (Homo sapiens, UniProt P21917, DEL265-296); construct: expressed in transfected cells; test: [3H]spiperone receptor binding assay, D4.2 (CHO K1 membranes); details: [3H]spiperone 0.2 nM, human D4.2, CHO K1 membranes, 60 minutes at 25° C.; read-out: D4 Ki
pKi: −log10 of the molar value.
observed_property: pKi

Solved cases below.
1. COc1cc(N2CCN(Cc3ccc4oc(=O)ccc4c3)CC2)cc(OC)c1OC 6.50
2. COc1cccc(N2CCN(Cc3ccc4oc(=O)ccc4c3)CC2)c1 7.24
3. O=c1ccc2ccc(CN3CCN(c4cccc(Cl)c4)CC3)cc2o1 7.64

(I) O=c1ccc2ccc(CN3CCN(c4cccc(Cl)c4Cl)CC3)cc2o1
(II) O=c1ccc2ccc(CN3CCN(c4cccc(C(F)(F)F)c4)CC3)cc2o1
(III) O=c1ccc2ccc(CN3CCN(c4ccc(CO)c(Cl)c4)CC3)cc2o1
(IV) CCCSc1cccc(N2CCN(Cc3ccc4ccc(=O)oc4c3)CC2)c1
# ascending order, key=pKi Respond with the label ranking, as requested.
IV, I, II, III
(IV: 7.04, I: 7.39, II: 7.62, III: 7.96)

----------
target: human recombinant dopamine D4.2 receptor (Homo sapiens, UniProt P21917, DEL265-296); construct: expressed in transfected cells; experiment: [3H]spiperone receptor binding assay, D4.2 (CHO K1 membranes); conditions: D4 Ki, [3H]spiperone 0.2 nM, human D4.2, CHO K1 membranes, 60 minutes at 25° C.
observed_property: Ki (µM)
State the answer as a number, implicitly in µM.

# count of solved cases: 6
molecule	Ki (µM)
Cc1ccc(N2CCN(Cc3ccc4ccc(=O)oc4c3)CC2)cc1Cl [Example 1]	0.0069
O=c1ccc2ccc(CN3CCN(c4ccccc4)CC3)cc2o1 [Example 13]	0.026
Cc1cccc(N2CCN(Cc3ccc4ccc(=O)oc4c3)CC2)c1 [Example 17]	0.032
Cc1ccc(N2CCN(Cc3ccc4oc(=O)ccc4c3)CC2)cc1 [Example 36]	0.0109
O=c1ccc2ccc(CN3CCN(c4ccc(F)cc4)CC3)cc2o1 [Example 24]	0.059
Cc1ccc(N2CCN(Cc3ccc4ccc(=O)oc4c3)CC2)cc1C [Example 3]	0.0139

GET /values?readout=Ki&item= Cc1ccccc1N1CCN(Cc2ccc3ccc(=O)oc3c2)CC1 [Example 4]
0.0163

If you can, please state the reported Ki value of O=c1ccc2ccc(CN3CCN(Cc4ccccc4)CC3)cc2o1 [Example 30] .
2.66

Please report the recorded Ki for COc1ccc(N2CCN(Cc3ccc4ccc(=O)oc4c3)CC2)cc1 [Example 26] .
0.075

Suppose we examine the molecule Cc1cccc(N2CCN(Cc3ccc4oc(=O)ccc4c3)CC2)c1 [Example 49] ; what Ki value has been reported?
0.074

Name the recorded Ki for O=c1ccc2ccc(CN3CCC(c4ccccc4)CC3)cc2o1 [Example 7] .
0.018

----------
Target: human dopamine D2 (Long form) receptor (Homo sapiens, UniProt P14416)
Assay: [3H]spiperone receptor binding assay, D2 (Long form) (CHO K1 membranes)
Details: [3H]spiperone 0.2 nM, human D2 (Long form), CHO K1 membranes, 60 minutes at 25° C.; read-out: D2 Ki
Description: A cell line expressing human dopamine D2 (Long form) receptors was purchased from Oregon Health Sciences University, Portland, Ore. The D2 receptor cDNA was subcloned into an expression vector, pRc/CMV. […] Saturation and competition binding data were analyzed using an iterative nonlinear least-square curve-fitting Ligand program. […] To allow these calculations, Kd values were measured for the interaction of various ligands with the receptor. […]
observed_property: Ki (µM)

Here is how some compounds turned out for Ki.
compound	measurement
Cc1ccc(N2CCN(Cc3ccc4ccc(=O)oc4c3)CC2)cc1C [Example 3]	0.433
Cc1ccc(N2CCN(Cc3ccc4oc(=O)ccc4c3)CC2)cc1 [Example 36]	5.83
Cc1cccc(N2CCN(Cc3ccc4ccc(=O)oc4c3)CC2)c1 [Example 17]	4.4

(a) O=c1ccc2ccc(CN3CCN(c4ccccc4F)CC3)cc2o1 [Example 18]
(b) O=c1ccc2cc(CN3CCN(c4ccc(CO)c(Cl)c4)CC3)ccc2o1 [Example 38]
Among a and b , whose measured Ki is the smaller figure? Indicate your choice by writing its label.
a
(a: 1 µM, b: 7.29 µM)

----------
biological target: human recombinant dopamine D4.2 receptor (Homo sapiens, UniProt P21917, DEL265-296); construct: expressed in transfected cells; assay: [3H]spiperone receptor binding assay, D4.2 (CHO K1 membranes); details: [3H]spiperone 0.2 nM, human D4.2, CHO K1 membranes, 60 minutes at 25° C.; read-out: D4 Ki
Structures can show the parent of a compound that is named as a salt.
observed_property: Ki (nM)

Below, 5 compounds whose answers are already recorded.
compound	system_tested	observed_property	measurement
O=c1ccc2cc(CN3CCN(c4cccc(Cl)c4Cl)CC3)ccc2o1 [Example 39]	human recombinant dopamine D4.2 receptor (Homo sapiens, UniProt P21917, DEL265-296)	Ki	15
O=c1ccc2ccc(CN3CCN(c4ccc(Cl)cc4)CC3)cc2o1 [Example 28]	human recombinant dopamine D4.2 receptor (Homo sapiens, UniProt P21917, DEL265-296)	Ki	93
O=c1ccc2cc(CN3CCN(c4cccc(Cl)c4Cl)CC3)ccc2o1 [Example 45]	human recombinant dopamine D4.2 receptor (Homo sapiens, UniProt P21917, DEL265-296)	Ki	41
O=c1ccc2ccc(CN3CCN(c4ccccc4F)CC3)cc2o1 [Example 18]	human recombinant dopamine D4.2 receptor (Homo sapiens, UniProt P21917, DEL265-296)	Ki	33
O=c1ccc2cc(CN3CCN(c4ccccc4Cl)CC3)ccc2o1 [Example 43]	human recombinant dopamine D4.2 receptor (Homo sapiens, UniProt P21917, DEL265-296)	Ki	28

(1) Cc1ccc(C2CCN(Cc3ccc4ccc(=O)oc4c3)CC2)cc1 [Example 12]
(2) O=c1ccc2ccc(CN3CCN(c4ncccn4)CC3)cc2o1 [Example 32, dihydrochloride]
Please tell me which of the two, 1 or 2 , has the higher reported Ki value. Select an item and report its label.
2
(2: 5000 nM, 1: 25.7 nM)

----------
Target: human recombinant dopamine D4.2 receptor (Homo sapiens, UniProt P21917, DEL265-296)
Construct: expressed in transfected cells
Sequence (P21917 with tags, fused parts or gaps DEL265-296): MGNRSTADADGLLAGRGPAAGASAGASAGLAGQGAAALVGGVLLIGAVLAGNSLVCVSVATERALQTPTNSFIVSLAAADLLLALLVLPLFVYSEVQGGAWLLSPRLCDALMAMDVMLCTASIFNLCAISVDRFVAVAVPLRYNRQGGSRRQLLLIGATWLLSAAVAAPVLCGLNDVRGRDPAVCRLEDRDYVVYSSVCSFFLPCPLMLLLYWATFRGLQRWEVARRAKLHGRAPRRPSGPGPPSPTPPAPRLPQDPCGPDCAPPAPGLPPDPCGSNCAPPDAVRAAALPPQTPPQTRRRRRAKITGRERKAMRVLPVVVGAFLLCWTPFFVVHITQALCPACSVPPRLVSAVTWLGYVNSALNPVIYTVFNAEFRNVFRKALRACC
Assay: [3H]spiperone receptor binding assay, D4.2 (CHO K1 membranes)
Details: [3H]spiperone 0.2 nM, human D4.2, CHO K1 membranes, 60 minutes at 25° C.; read-out: D4 Ki
observed_property: Ki (nM)

1. O=c1ccc2cc(CN3CCN(c4cccc(Cl)c4)CC3)ccc2o1 19.4

(I) O=c1ccc2cc(CN3CCN(c4ccc(CO)c(F)c4)CC3)ccc2o1
(II) O=c1ccc2ccc(CN3CCN(c4ccc(CO)c(F)c4)CC3)cc2o1
(III) Cc1cccc(N2CCN(Cc3ccc4oc(=O)ccc4c3)CC2)c1C
(IV) Cc1c(Cl)cccc1N1CCN(Cc2ccc3ccc(=O)oc3c2)CC1
Ascending sort, Ki. // respond by listing labels in the order requested
III, I, II, IV

Origin of measurements: patent US5922719A
